biological target: HLA-A*03:01; assay: IEDB peptide-MHC binding, purified MHC/direct/fluorescence; filed as Kd, often an IC50 or EC50 that approximates it; bounds were set here for any values at or beyond the usual limits of such assays; conditions: source organism: Rhizobium wenxiniae
Observable: Kd

Prompt: Any idea what Kd was measured for `FHLRSRFAF` ?
Completion: ≥ 20 µM

====

target: HLA-A*02:11; assay: IEDB peptide-MHC binding, purified MHC/direct/fluorescence; filed as Kd, often an IC50 or EC50 that approximates it; bounds were set here for any values at or beyond the usual limits of such assays; settings: source organism: Limestone Canyon virus
pKd: −log10 of the molar value.
Observable: pKd

Prompt: Any idea what pKd was measured for `LVTARQKLK` ?
Completion: ≤ 4.70

====

biological target: HLA-A*02:12; assay: IEDB peptide-MHC binding, purified MHC/competitive/fluorescence; filed as Kd, often an IC50 or EC50 that approximates it; bounds were set here for any values at or beyond the usual limits of such assays; settings: source organism: Haemophilus influenzae 22.1-21
Observable: Kd
State the result as a value with its unit after it.

Prompt: Any idea what Kd was measured for `RFLEDYFGV` ?
Completion: 44.3 nM

====

biological target: HLA-A*11:01; test: IEDB peptide-MHC binding, purified MHC/direct/fluorescence; filed as Kd, often an IC50 or EC50 that approximates it; bounds were set here for any values at or beyond the usual limits of such assays; settings: source organism: H9N2 subtype Influenza A virus (A/swine/Korea/S83/2004(H9N2))
Observable: Kd

Prompt: Any idea what Kd was measured for `FQKDAKVLF` ?
Completion: ≥ 20 µM

====

biological target: HLA-C*15:02; assay: IEDB peptide-MHC binding, purified MHC/direct/fluorescence; filed as Kd, often an IC50 or EC50 that approximates it; bounds were set here for any values at or beyond the usual limits of such assays; details: source organism: Escherichia coli str. K-12 substr. MG1655
pKd: −log10 of the molar value.
Observable: pKd

Prompt: Any idea what pKd was measured for `AKIEAPLLL` ?
Completion: ≤ 4.70

====

target: HLA-A*69:01; assay: IEDB peptide-MHC binding, purified MHC/direct/fluorescence; filed as Kd, often an IC50 or EC50 that approximates it; bounds were set here for any values at or beyond the usual limits of such assays; details: source organism: Influenza A virus (A/Duck/Shantou/2134/00(H9N2))
Observable: Kd

Prompt: Any idea what Kd was measured for `ASRGLWDSF` ?
Completion: ≥ 20 µM

====

Each item that follows carries a reported pKd.
molecular target: HLA-A*02:03; assay: IEDB peptide-MHC binding, purified MHC/competitive/radioactivity; filed as Kd, often an IC50 or EC50 that approximates it; bounds were set here for any values at or beyond the usual limits of such assays; settings: source organism: SARS coronavirus Tor2
Interpret pKd as the negative base-10 log of the concentration measured in mol/L.

Prompt: Any idea what pKd was measured for `HAFLCLFLL` ?
Completion: 7.33

Prompt: Any idea what pKd was measured for `YLMCLSPLM` ?
Completion: 9.53

====

target: HLA-A*02:02; assay: IEDB peptide-MHC binding, purified MHC/competitive/radioactivity; filed as Kd, often an IC50 or EC50 that approximates it; bounds were set here for any values at or beyond the usual limits of such assays; conditions: source organism: Vaccinia virus WR
Observable: pKd
Interpret pKd as the negative base-10 log of the concentration measured in mol/L.

>  <Macromolecule Sequence>
IVSHLRASTT

>  <Observable>
pKd

>  <Endpoint Result>
6.86

$$$$
>  <Macromolecule Sequence>
NTITTFIPI

>  <Observable>
pKd

>  <Endpoint Result>
4.81

$$$$
>  <Macromolecule Sequence>
IQYRQQLEL

>  <Observable>
pKd

>  <Endpoint Result>
6.29

$$$$
>  <Macromolecule Sequence>
AAVIIMAINV

>  <Observable>
pKd

>  <Endpoint Result>
5.89

$$$$
>  <Macromolecule Sequence>
LTGTFVTAFI

>  <Observable>
pKd

>  <Endpoint Result>
6.17

$$$$
>  <Macromolecule Sequence>
PLPSLEYGA

>  <Observable>
pKd

>  <Endpoint Result>
4.94

$$$$

Prompt: Any idea what pKd was measured for `DINESMSQMV` ?
Completion: 6.51

====

molecular target: HLA-A*01:01; experiment: IEDB peptide-MHC binding, purified MHC/direct/fluorescence; filed as Kd, often an IC50 or EC50 that approximates it; bounds were set here for any values at or beyond the usual limits of such assays; settings: source organism: Mammarenavirus lassaense
pKd: −log10 of the molar value.
Observable: pKd

Prompt: Any idea what pKd was measured for `FVRSSPANF` ?
Completion: ≤ 4.70

====

target: HLA-A*01:01; experiment: IEDB peptide-MHC binding, purified MHC/direct/fluorescence; filed as Kd, often an IC50 or EC50 that approximates it; bounds were set here for any values at or beyond the usual limits of such assays; conditions: source organism: Homo sapiens
Observable: pKd
Interpret pKd as the negative base-10 log of the concentration measured in mol/L.

Prompt: Any idea what pKd was measured for `VTDTALAYF` ?
Completion: 9.05

====

target: HLA-B*39:01; assay: IEDB peptide-MHC binding, purified MHC/competitive/fluorescence; filed as Kd, often an IC50 or EC50 that approximates it; bounds were set here for any values at or beyond the usual limits of such assays; conditions: source organism: Mycobacterium tuberculosis C
pKd: −log10 of the molar value.
Observable: pKd

Prompt: Any idea what pKd was measured for `SLVAIHLAC` ?
Completion: ≤ 4.70

====

target: HLA-A*01:01; experiment: IEDB peptide-MHC binding, purified MHC/direct/fluorescence; filed as Kd, often an IC50 or EC50 that approximates it; bounds were set here for any values at or beyond the usual limits of such assays; details: source organism: Vibrio vulnificus
Observable: Kd

Prompt: Any idea what Kd was measured for `IQTHCEVGY` ?
Completion: ≥ 20 µM

====

biological target: HLA-A*11:01; assay: IEDB peptide-MHC binding, purified MHC/direct/fluorescence; filed as Kd, often an IC50 or EC50 that approximates it; bounds were set here for any values at or beyond the usual limits of such assays; details: source organism: Camelpox virus M-96
Observable: Kd

Prompt: Any idea what Kd was measured for `YERGNIIIF` ?
Completion: ≥ 20 µM

====

target: HLA-A*30:01; test: IEDB peptide-MHC binding, purified MHC/competitive/radioactivity; filed as Kd, often an IC50 or EC50 that approximates it; bounds were set here for any values at or beyond the usual limits of such assays; settings: source organism: Dengue virus 2 Jamaica/1409/1983
Observable: Kd (µM)
Quick reminder: number only, in µM, skip the unit.

>  <Macromolecule Sequence>
ETWILRHPGF

>  <Unit Tag>
µM

>  <Kd>
12.3

$$$$

Now for the sequence whose Kd we want.
Prompt: Any idea what Kd was measured for `KSKAINVLR` ?
Completion: 0.103

====

target: HLA-B*18:01; assay: IEDB peptide-MHC binding, purified MHC/competitive/radioactivity; filed as Kd, often an IC50 or EC50 that approximates it; bounds were set here for any values at or beyond the usual limits of such assays; details: source organism: Mammarenavirus tacaribeense
Observable: Kd

Prompt: Any idea what Kd was measured for `EEVPTLIKTL` ?
Completion: ≥ 70.4 µM

====

target: HLA-B*45:01; experiment: IEDB peptide-MHC binding, purified MHC/competitive/radioactivity; filed as Kd, often an IC50 or EC50 that approximates it; bounds were set here for any values at or beyond the usual limits of such assays; details: source organism: Mammarenavirus brazilense
Observable: pKd
Interpret pKd as the negative base-10 log of the concentration measured in mol/L.

Prompt: Any idea what pKd was measured for `IDPLIVSTS` ?
Completion: 4.72

====

molecular target: HLA-A*26:02; assay: IEDB peptide-MHC binding, purified MHC/competitive/fluorescence; filed as Kd, often an IC50 or EC50 that approximates it; bounds were set here for any values at or beyond the usual limits of such assays; settings: source organism: Vaccinia virus WR
Observable: pKd
Interpret pKd as the negative base-10 log of the concentration measured in mol/L.

Prompt: Any idea what pKd was measured for `FVFEATKLY` ?
Completion: 7.18

====

molecular target: HLA-C*03:03; assay: IEDB peptide-MHC binding, purified MHC/direct/fluorescence; filed as Kd, often an IC50 or EC50 that approximates it; bounds were set here for any values at or beyond the usual limits of such assays; conditions: source organism: Yersinia frederiksenii ATCC 33641
pKd: −log10 of the molar value.
Observable: pKd

Prompt: Recall the recorded pKd for `LAIEATLAF` with HLA-C*03:03 and state it.
Completion: ≤ 4.70

====

target: HLA-A*02:01; test: IEDB peptide-MHC binding, purified MHC/competitive/radioactivity; filed as Kd, often an IC50 or EC50 that approximates it; bounds were set here for any values at or beyond the usual limits of such assays; settings: source organism: Trypanosoma cruzi
Observable: pKd
Interpret pKd as the negative base-10 log of the concentration measured in mol/L.

Prompt: Any idea what pKd was measured for `LLGLCGFSAL` ?
Completion: 6.44
